target: Butyrylcholinesterase (Rattus norvegicus); test: Inhibition of rat serum BChE using butyrylthiocholine chloride as substrate incubated for 15 mins by Ellman's method
Sequence (Q9JKC1 whole entry): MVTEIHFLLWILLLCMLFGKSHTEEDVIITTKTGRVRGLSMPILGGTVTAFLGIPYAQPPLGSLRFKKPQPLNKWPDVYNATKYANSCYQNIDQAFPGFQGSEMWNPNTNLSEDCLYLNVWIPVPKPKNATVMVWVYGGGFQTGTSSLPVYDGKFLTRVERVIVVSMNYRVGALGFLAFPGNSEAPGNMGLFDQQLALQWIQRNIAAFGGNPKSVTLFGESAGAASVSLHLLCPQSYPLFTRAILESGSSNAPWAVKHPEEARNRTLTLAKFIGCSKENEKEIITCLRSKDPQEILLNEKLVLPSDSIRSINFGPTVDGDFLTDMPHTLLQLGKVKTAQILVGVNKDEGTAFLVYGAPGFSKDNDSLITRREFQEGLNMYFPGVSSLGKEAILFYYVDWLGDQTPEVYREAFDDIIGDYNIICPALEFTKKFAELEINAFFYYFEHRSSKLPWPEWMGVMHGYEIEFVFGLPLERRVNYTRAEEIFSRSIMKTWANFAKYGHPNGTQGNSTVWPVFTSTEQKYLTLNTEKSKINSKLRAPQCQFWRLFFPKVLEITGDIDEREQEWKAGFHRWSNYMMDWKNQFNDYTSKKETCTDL
Entries and their pIC50 values follow.
Schema: pIC50 number; meaning minus log10 of the concentration expressed in molar units.

A selection of reference data follows.
1) CC(C)N1CCN(CCCCN2C(=O)c3ccccc3C2=O)CC1 | 4.75
2) CCN(CCN1C(=O)c2ccccc2C1=O)Cc1ccccc1OC | 4.80
3) C#CCN(CCCCCN1C(=O)c2ccccc2C1=O)Cc1ccccc1 | 4.23
4) CCN(CCN1C(=O)c2ccccc2C1=O)Cc1ccccc1 | 4.79
5) CCN(CCCN1C(=O)c2ccccc2C1=O)Cc1ccccc1 | 4.88

Provide measured pIC50 value, entry: `C#CCN(CCCCN1C(=O)c2ccccc2C1=O)Cc1ccccc1`
4.49

Provide measured pIC50 value, entry: `CCN(CCCCCCN1C(=O)c2ccccc2C1=O)Cc1ccccc1OC`
4.83

Provide measured pIC50 value, entry: `CC(C)N1CCN(CCCN2C(=O)c3ccccc3C2=O)CC1`
4.48

Provide measured pIC50 value, entry: `CCN(CCCN1C(=O)c2ccccc2C1=O)Cc1ccccc1OC`
5.03

Provide measured pIC50 value, entry: `CCN(CCCCN1C(=O)c2ccccc2C1=O)Cc1ccccc1OC`
4.72

Provide measured pIC50 value, entry: `C#CCN(CCCCCCN1C(=O)c2ccccc2C1=O)Cc1ccccc1OC`
4.65

Provide measured pIC50 value, entry: `C#CCN(CCCN1C(=O)c2ccccc2C1=O)Cc1ccccc1OC`
5.28

====

experiment: Selectivity index, ratio of IC50 for equine serum BChE to IC50 for electric eel AChE
Grouping by measured Ratio IC50 is done with the following cut points: lowest = under 3, middle = from 3 up to 6, highest = 6 and over

1) CN(CCCCN1C(=O)c2ccccc2C1=O)Cc1ccccc1 | middle

Determine which band this compound sits in: `C#CCN(CCCCCN1C(=O)c2ccccc2C1=O)Cc1ccccc1OC`
lowest

Determine which band this compound sits in: `CC(C)N1CCN(CCCCN2C(=O)c3ccccc3C2=O)CC1`
middle

Determine which band this compound sits in: `CCN(CCN1C(=O)c2ccccc2C1=O)Cc1ccccc1`
lowest

Determine which band this compound sits in: `COc1ccccc1CN(C)CCCCCCN1C(=O)c2ccccc2C1=O`
highest

Determine which band this compound sits in: `CN(CCCN1C(=O)c2ccccc2C1=O)Cc1ccccc1`
lowest

Determine which band this compound sits in: `CN(CCCCCCN1C(=O)c2ccccc2C1=O)Cc1ccccc1`
highest

Determine which band this compound sits in: `CCN(CCCN1C(=O)c2ccccc2C1=O)Cc1ccccc1`
lowest

Determine which band this compound sits in: `C#CCN(CCCCCN1C(=O)c2ccccc2C1=O)Cc1ccccc1`
middle

Determine which band this compound sits in: `COc1ccccc1CN(C)CCN1C(=O)c2ccccc2C1=O`
lowest

====

experiment: Selectivity index, ratio of IC50 for equine serum BChE to IC50 for electric eel AChE
Entries and their Ratio IC50 values follow.
Just the number, please, no unit after it.

A selection of reference data follows.
1) C#CCN(CCCN1C(=O)c2ccccc2C1=O)Cc1ccccc1OC | 0.43
2) CCN(CCN1C(=O)c2ccccc2C1=O)Cc1ccccc1OC | 5.1
3) C#CCN(CCCN1C(=O)c2ccccc2C1=O)Cc1ccccc1 | 3

Provide measured Ratio IC50 value, entry: `C#CCN(CCCCN1C(=O)c2ccccc2C1=O)Cc1ccccc1OC`
2.4
